- Tested on: primary cultured guinea-pig urinary bladder (GPB) cells
- procedure-details: Membrane hyperpolarization (MHP) assay, DiBAC(4)3 / FLIPR
- Assay type: cell-based
- reported-conditions: Cavia porcellus, maximal steady-state hyperpolarization, normalized to response with 10 μM P1075 (100%)
Reported Emax values for the following compounds.
Express it in %; write the number only.

These solved cases illustrate the format of a correct answer.
{"compound": "Cc1ccc(C(=O)NC(NC(=S)Nc2cccnc2)c2ccccc2)cc1 (centres unmarked)", "reported-endpoint": "Emax", "unit-label": "%", "obs-value": 80}
{"compound": "CCC1(C(NC(=O)c2ccc(Cl)cc2)NC(=NC#N)Nc2cccnc2)COCOC1 (centres unmarked)", "reported-endpoint": "Emax", "unit-label": "%", "obs-value": 59}
{"compound": "Cc1ccc(C(=O)NC(NC(=S)Nc2ccc(Cl)nc2)C(F)(F)F)cc1 (centres unmarked)", "reported-endpoint": "Emax", "unit-label": "%", "obs-value": 101}
{"compound": "CC(C)(C)C(NC(=O)c1ccc(Cl)cc1)NC(=S)Nc1cccnc1 (centres unmarked)", "reported-endpoint": "Emax", "unit-label": "%", "obs-value": 80}

Next:
IN: Name the recorded Emax of the item Cc1ccc(C(=O)NC(NC(=S)Nc2ccc(F)cc2)C(F)(F)F)cc1 (centres unmarked) in your answer.
OUT: 79

---

- Tested on: tissue strips obtained from Landrace pig bladders
- procedure-details: Functional potassium channel opening activity in isolated bladder strips (field-stimulated twitch)
- reported-conditions: Sus scrofa, amount of agent necessary to cause 50% of the agent's maximal response; read-out: ED50 (the source's name)
- Method: Compounds were evaluated for functional potassium channel opening activity using tissue strips obtained from Landrace pig bladders. Landrace pig bladders were obtained from female Landrace pigs of 9-30 kg. […] The maximal efficacy of each compound (expressed as % relative to P1075) is reported. […] Agonist potencies were also expressed as an index relative to P1075. The index was calculated by dividing the ED50 for P1075 by the ED50 for the test agonist in a given tissue. […]
Reported pEC50 values for the following compounds.
API: returns pEC50 as number; meaning -log10 of concentration in mol/L.

These solved cases illustrate the format of a correct answer.
{"compound": "Cc1ccc(C(=O)NC(NC(=S)Nc2cccnc2)c2ccccc2)cc1 (stereo not shown)", "pEC50": 4.64}
{"compound": "CC(C)(C)C(NC(=O)c1ccc(Cl)cc1)NC(=NC#N)Nc1cccnc1 (stereo not shown)", "pEC50": 4.72}
{"compound": "Cc1cccc(C(=O)NC(NC(=NC#N)Nc2ccc(Cl)nc2)C(C)(Cl)Cl)c1 (stereo not shown)", "pEC50": 5.38}

IN: Name the recorded pEC50 of the item Cc1ccccc1C(=O)NC(NC(=NC#N)Nc1cccnc1)C(Cl)(Cl)Cl (stereo not shown) in your answer.
OUT: 4.77

IN: Name the recorded pEC50 of the item N#CN=C(Nc1cccnc1)NC(NC(=O)c1ccc(Cl)cc1)C(F)(F)C(F)(F)F (stereo not shown) in your answer.
OUT: 5.32

IN: Name the recorded pEC50 of the item Cc1ccc(C(=O)NC(NC(=S)Nc2cccc([N+](=O)[O-])c2)C(C)(C)C)cc1 (stereo not shown) in your answer.
OUT: 6.00

IN: Name the recorded pEC50 of the item Cc1ccc(C(=O)NC(NC(=S)Nc2ccccc2)C(F)(F)F)cc1 (stereo not shown) in your answer.
OUT: 4.77

IN: Name the recorded pEC50 of the item Cc1ccc(C(=O)NC(NC(=S)Nc2cccnc2)C(F)(F)F)cc1 (stereo not shown) in your answer.
OUT: 5.05

---

Reported Emax values for the following compounds.
- Tested on: primary cultured guinea-pig urinary bladder (GPB) cells
- procedure-details: Membrane hyperpolarization (MHP) assay, DiBAC(4)3 / FLIPR
- Assay type: cell-based
- reported-conditions: Cavia porcellus, maximal steady-state hyperpolarization, normalized to response with 10 μM P1075 (100%)
Express it in %; write the number only.

IN: Name the recorded Emax of the item Cc1ccc(C(=O)NC(NC(=NC#N)Nc2cccnc2)C(Cl)(Cl)Cl)cc1 (centres unmarked) in your answer.
OUT: 103

IN: Name the recorded Emax of the item Cc1ccc(C(=O)NC(NC(=NC#N)Nc2ccccc2F)C(Cl)(Cl)Cl)cc1 (centres unmarked) in your answer.
OUT: 98

IN: Name the recorded Emax of the item CC1=C(CC(NC(=O)c2ccc(Cl)cc2)NC(=NC#N)Nc2cccnc2)C(C)(C)CCC1 (centres unmarked) in your answer.
OUT: 79

IN: Name the recorded Emax of the item N#CN=C(Nc1cccnc1)NC(NC(=O)c1ccc(Cl)cc1)C(Cl)(Cl)Cl (centres unmarked) in your answer.
OUT: 92

IN: Name the recorded Emax of the item C=CC(C)(C)CC(NC(=O)c1ccc(Cl)cc1)NC(=NC#N)Nc1cccnc1 (centres unmarked) in your answer.
OUT: 71

IN: Name the recorded Emax of the item N#CN=C(Nc1cccnc1)NC(NC(=O)c1ccc(Cl)cc1)C1CCCCC1 (centres unmarked) in your answer.
OUT: 36

IN: Name the recorded Emax of the item Cc1ccc(C(=O)NC(NC(=S)Nc2ccccc2)C(F)(F)F)cc1 (centres unmarked) in your answer.
OUT: 104

IN: Name the recorded Emax of the item CCC(CC)(CCC#N)C(NC(=O)c1ccc(Cl)cc1)NC(=NC#N)Nc1cccnc1 (centres unmarked) in your answer.
OUT: 89

---

- Test system: primary cultured guinea-pig urinary bladder (GPB) cells
- procedure-details: Membrane hyperpolarization (MHP) assay, DiBAC(4)3 / FLIPR
- Type: cell-based
- reported-conditions: Cavia porcellus, maximal steady-state hyperpolarization, normalized to response with 10 μM P1075 (100%)
reported-endpoint: Emax
Kindly report the value followed by its unit.

These solved cases illustrate the format of a correct answer.
{"compound": "CC(C)CC(NC(=O)c1ccc(Cl)cc1)NC(=NC#N)Nc1cccnc1 (stereo not shown) [Example 60]", "target-entity": "primary cultured guinea-pig urinary bladder (GPB) cells", "reported-endpoint": "Emax", "obs-value": "62%"}
{"compound": "O=C(Nc1cccnc1)NC(NC(=O)c1ccc(Cl)cc1)C(Cl)(Cl)Cl (stereo not shown) [Example 41]", "target-entity": "primary cultured guinea-pig urinary bladder (GPB) cells", "reported-endpoint": "Emax", "obs-value": "98%"}
{"compound": "C=CCOCC(CC)(COCC=C)C(NC(=O)c1ccc(Cl)cc1)NC(=N[N+](=O)[O-])Nc1cccnc1 (stereo not shown) [Example 131]", "target-entity": "primary cultured guinea-pig urinary bladder (GPB) cells", "reported-endpoint": "Emax", "obs-value": "53%"}

IN: Name the recorded Emax of the item Cc1ccc(C(=O)NC(NC(=O)Nc2cccnc2)C(Cl)(Cl)Cl)cc1 (stereo not shown) [Example 38] in your answer.
OUT: 100%

---

Reported Efficacy (% P1075) values for the following molecules.
- System: tissue strips obtained from Landrace pig bladders
- procedure-details: Functional potassium channel opening activity in isolated bladder strips (field-stimulated twitch)
- reported-conditions: maximal efficacy relative to P1075; field stimulation 0.05 Hz, 0.5 ms, 20 volts
Express it in % P1075; write the number only.

These solved cases illustrate the format of a correct answer.
{"molecule": "CC(Cl)(Cl)C(NC(=O)c1ccc(Cl)cc1)NC(=NC#N)Nc1cccnc1 (single isomer, unassigned; (-)) [Example 117]", "target-entity": "tissue strips obtained from Landrace pig bladders", "Efficacy (% P1075)": 79}
{"molecule": "CC(Cl)(Cl)C(NC(=O)c1ccc(Cl)cc1)NC(=NC#N)Nc1ccc(Cl)nc1 (single isomer, unassigned; (-)) [Example 161]", "target-entity": "tissue strips obtained from Landrace pig bladders", "Efficacy (% P1075)": 93}
{"molecule": "Cc1ccc(C(=O)NC(NC(=NC#N)Nc2cccnc2)C(C)(C)C)cc1 (single isomer, unassigned; (+)) [Example 58]", "target-entity": "tissue strips obtained from Landrace pig bladders", "Efficacy (% P1075)": 59}
{"molecule": "CC(Cl)(Cl)C(NC(=O)c1ccc(Cl)cc1)NC(=NC#N)Nc1ccc(Cl)nc1 (single isomer, unassigned; (+)) [Example 162]", "target-entity": "tissue strips obtained from Landrace pig bladders", "Efficacy (% P1075)": 87}

Next:
IN: Name the recorded Efficacy (% P1075) of the item CCC(CC)(CCC#N)C(NC(=O)c1ccc(Cl)cc1)NC(=NC#N)Nc1cccnc1 (single isomer, unassigned; (-)) [Example 86] in your answer.
OUT: 19

---

reported-endpoint: melting point

These solved cases illustrate the format of a correct answer.
{"compound": "Cc1ccc(C(=O)NC(NC(=NC#N)Nc2ccc(Cl)nc2)C(C)(C)C)cc1 (centres unmarked) [Example 55]", "reported-endpoint": "melting point", "obs-value": "194 to 196 °C"}
{"compound": "CC(C)(C1CCCCC1)C(NC(=O)c1ccc(Cl)cc1)NC(=N[N+](=O)[O-])Nc1cccnc1 (centres unmarked) [Example 130]", "reported-endpoint": "melting point", "obs-value": "201 to 203 °C"}

IN: Name the recorded melting point of the item CCCC(Cl)(Cl)C(NC(=O)c1ccc(Cl)cc1)NC(=N[N+](=O)[O-])Nc1cccnc1 (centres unmarked) [Example 136] in your answer.
OUT: 198 to 200 °C

IN: Name the recorded melting point of the item CC(C)(C1CCCCC1)C(NC(=O)c1ccc(Cl)cc1)NC(=NC#N)Nc1cccnc1 (centres unmarked) [Example 93] in your answer.
OUT: 181 to 183 °C

IN: Name the recorded melting point of the item CC(C)(C)C(NC(=O)c1ccc(Cl)cc1)NC(=NC#N)Nc1cc(F)ccc1F (centres unmarked) [Example 73] in your answer.
OUT: 196 to 198 °C

IN: Name the recorded melting point of the item N#CN=C(Nc1cccc(F)c1)NC(NC(=O)c1ccc(Cl)cc1)c1ccsc1 (centres unmarked) [Example 56] in your answer.
OUT: 166 to 168 °C

IN: Name the recorded melting point of the item COc1ncccc1NC(=NC#N)NC(NC(=O)c1cc(Cl)cc(Cl)c1)C(C)(Cl)Cl (centres unmarked) [Example 164] in your answer.
OUT: 149 to 150 °C

IN: Name the recorded melting point of the item N#CN=C(Nc1cccnc1)NC(NC(=O)c1ccc(Cl)cc1)C12CC3CC(CC(C3)C1)C2 (centres unmarked) [Example 100] in your answer.
OUT: 209 to 210 °C
